Origin of the recorded values: the Immune Epitope Database (IEDB)

molecular target: HLA-C*12:03; test: IEDB peptide-MHC binding, purified MHC/direct/fluorescence; filed as Kd, often an IC50 or EC50 that approximates it; bounds were set here for any values at or beyond the usual limits of such assays; settings: source organism: Rattus norvegicus
Endpoint label: Kd (µM)
Provide the reading as a plain figure in µM.

Exercise: Dear colleague, I am looking for the recorded Kd of the following sequence: FLRKNQRAL
Key: 0.383

* * *

biological target: HLA-A*24:02; assay: IEDB peptide-MHC binding, purified MHC/competitive/radioactivity; filed as Kd, often an IC50 or EC50 that approximates it; bounds were set here for any values at or beyond the usual limits of such assays; conditions: source organism: Mammarenavirus tacaribeense
Endpoint label: Kd (nM)
Provide the reading as a plain figure in nM.

Exercise: Dear colleague, I am looking for the recorded Kd of the following sequence: CWFADKNLI
Key: 510

* * *

biological target: HLA-A*31:01; assay: IEDB peptide-MHC binding, purified MHC/direct/fluorescence; filed as Kd, often an IC50 or EC50 that approximates it; bounds were set here for any values at or beyond the usual limits of such assays; conditions: source organism: Pseudomonas aeruginosa UCBPP-PA14
Endpoint label: pKd
Conceptually, pKd converts a concentration in mol/L into minus its log10.

Exercise: Kindly state the measured pKd obtained for MVTGGIRRR with HLA-A*31:01.
Key: 6.60

* * *

target: HLA-B*57:01; assay: IEDB peptide-MHC binding, purified MHC/direct/fluorescence; filed as Kd, often an IC50 or EC50 that approximates it; bounds were set here for any values at or beyond the usual limits of such assays; settings: source organism: Camelpox virus M-96
Endpoint label: pKd
Conceptually, pKd converts a concentration in mol/L into minus its log10.

Exercise: Dear colleague, I am looking for the recorded pKd of the following sequence: KTINALVYF
Key: 6.11

* * *

molecular target: HLA-A*23:01; test: IEDB peptide-MHC binding, purified MHC/competitive/radioactivity; filed as Kd, often an IC50 or EC50 that approximates it; bounds were set here for any values at or beyond the usual limits of such assays; conditions: source organism: Mammarenavirus lassaense
Endpoint label: Kd (nM)
Provide the reading as a plain figure in nM.

Exercise: Kindly state the measured Kd obtained for CFISVNDRLV with HLA-A*23:01.
Key: 358

* * *

# Lookup of reported Kd keyed by entry
target: HLA-B*51:01; assay: IEDB peptide-MHC binding, purified MHC/competitive/fluorescence; filed as Kd, often an IC50 or EC50 that approximates it; bounds were set here for any values at or beyond the usual limits of such assays; settings: source organism: Vibrio antiquarius
Provide the reading as a plain figure in nM.

IPVEPAFQV :: 254

Field: next sequence
Exercise: Kindly state the measured Kd obtained for FAMTVPLLI with HLA-B*51:01.
Key: 126

* * *

target: HLA-B*08:03; assay: IEDB peptide-MHC binding, purified MHC/direct/fluorescence; filed as Kd, often an IC50 or EC50 that approximates it; bounds were set here for any values at or beyond the usual limits of such assays; conditions: source organism: Vibrio vulnificus CMCP6
Endpoint label: Kd (nM)
Provide the reading as a plain figure in nM.

Exercise: Dear colleague, I am looking for the recorded Kd of the following sequence: YQRALHTSI
Key: 55

* * *

# Lookup of reported pKd keyed by entry
target: HLA-A*69:01; experiment: IEDB peptide-MHC binding, purified MHC/direct/fluorescence; filed as Kd, often an IC50 or EC50 that approximates it; bounds were set here for any values at or beyond the usual limits of such assays; conditions: source organism: Burkholderia mallei
pKd: −log10 of the molar value.

Consider the reported pKd for these sequences:
APAKKAAAK :: ≤ 4.70
MQQAYQCIV :: 5.04

Field: next sequence
Exercise: Dear colleague, I am looking for the recorded pKd of the following sequence: AVAVARVAA
Key: ≤ 4.70

* * *

biological target: HLA-B*58:01; test: IEDB peptide-MHC binding, purified MHC/direct/fluorescence; filed as Kd, often an IC50 or EC50 that approximates it; bounds were set here for any values at or beyond the usual limits of such assays; conditions: source organism: Haemophilus influenzae
Endpoint label: Kd

Exercise: Dear colleague, I am looking for the recorded Kd of the following sequence: LIFPAFFLC
Key: ≥ 10 µM

* * *

molecular target: HLA-A*68:01; experiment: IEDB peptide-MHC binding, purified MHC/competitive/radioactivity; filed as Kd, often an IC50 or EC50 that approximates it; bounds were set here for any values at or beyond the usual limits of such assays; conditions: source organism: Mammarenavirus guanaritoense
Endpoint label: Kd (µM)
Provide the reading as a plain figure in µM.

VTEFRRTAIH :: 15.3

Field: next sequence
Exercise: Dear colleague, I am looking for the recorded Kd of the following sequence: TMEIEDQEYH
Key: 8.53

* * *

molecular target: HLA-A*24:02; test: IEDB peptide-MHC binding, purified MHC/competitive/radioactivity; filed as Kd, often an IC50 or EC50 that approximates it; bounds were set here for any values at or beyond the usual limits of such assays; details: source organism: SARS coronavirus Tor2
Endpoint label: Kd (µM)
Provide the reading as a plain figure in µM.

RLSFKELLVY :: 15.7

Exercise: Dear colleague, I am looking for the recorded Kd of the following sequence: LFLAFVVFLL
Key: 11.7

Exercise: Dear colleague, I am looking for the recorded Kd of the following sequence: AMDEFIQRY
Key: 7.9

Exercise: Dear colleague, I am looking for the recorded Kd of the following sequence: EYKLQQGTF
Key: 11.3

Exercise: Dear colleague, I am looking for the recorded Kd of the following sequence: VIEGPTTCGY
Key: 17

Exercise: Dear colleague, I am looking for the recorded Kd of the following sequence: VYRGTTTYKL
Key: 0.136

* * *

# Lookup of reported pKd keyed by entry
target: HLA-B*57:01; experiment: IEDB peptide-MHC binding, purified MHC/direct/fluorescence; filed as Kd, often an IC50 or EC50 that approximates it; bounds were set here for any values at or beyond the usual limits of such assays; conditions: source organism: Marburg virus - Musoke, Kenya, 1980
pKd: −log10 of the molar value.

NQQVTNSKY :: ≤ 4.70
YGVKNLFDW :: 7.42

Exercise: Dear colleague, I am looking for the recorded pKd of the following sequence: ARHGEYAPF
Key: ≤ 4.70

* * *

molecular target: HLA-A*02:17; assay: IEDB peptide-MHC binding, purified MHC/competitive/radioactivity; filed as Kd, often an IC50 or EC50 that approximates it; bounds were set here for any values at or beyond the usual limits of such assays; details: source organism: Dengue virus 4 Philippines/H241/1956
Endpoint label: pKd
Conceptually, pKd converts a concentration in mol/L into minus its log10.

Consider the reported pKd for these sequences:
VLFVVTLIPL :: 5.51
FLGEDGCWYG :: 5.98
ELMRRGDLPV :: 4.70
ILTILTIIGL :: 6.34

Exercise: Dear colleague, I am looking for the recorded pKd of the following sequence: ALLGAMTAGI
Key: 6.90

* * *

molecular target: HLA-B*07:02; assay: IEDB peptide-MHC binding, purified MHC/direct/fluorescence; filed as Kd, often an IC50 or EC50 that approximates it; bounds were set here for any values at or beyond the usual limits of such assays; conditions: source organism: Camelpox virus M-96
pKd: −log10 of the molar value.
Endpoint label: pKd

Exercise: Dear colleague, I am looking for the recorded pKd of the following sequence: SQEDNHFSL
Key: ≤ 4.70

* * *

target: HLA-A*03:01; test: IEDB peptide-MHC binding, purified MHC/competitive/radioactivity; filed as Kd, often an IC50 or EC50 that approximates it; bounds were set here for any values at or beyond the usual limits of such assays; settings: source organism: Mammarenavirus guanaritoense
pKd: −log10 of the molar value.
# Lookup of reported pKd keyed by entry

TMEIEDQEYH :: ≤ 4.15

Field: next sequence
Exercise: Kindly state the measured pKd obtained for VTEFRRTAIH with HLA-A*03:01.
Key: ≤ 4.48

* * *

biological target: HLA-B*44:03; test: IEDB peptide-MHC binding, purified MHC/competitive/radioactivity; filed as Kd, often an IC50 or EC50 that approximates it; bounds were set here for any values at or beyond the usual limits of such assays; conditions: source organism: Lymphocytic choriomeningitis virus (strain Armstrong)
Endpoint label: Kd (nM)
Provide the reading as a plain figure in nM.

Exercise: Dear colleague, I am looking for the recorded Kd of the following sequence: IEVALRTLLL
Key: 1830

* * *

# Lookup of reported pIC50 keyed by entry
molecular target: HLA-B*15:01; experiment: IEDB peptide-MHC binding, purified MHC/competitive/fluorescence; bounds were set here for any values at or beyond the usual limits of such assays; conditions: source organism: Zaire ebolavirus
Conceptually, pIC50 converts a concentration in mol/L into minus its log10.

Consider the reported pIC50 for these sequences:
QQFYWPVMN :: 4.47
GLMHNQDGL :: 4.29
GLFPQLSAI :: 4.99

Exercise: Dear colleague, I am looking for the recorded pIC50 of the following sequence: WQSVGHMMV
Key: 5.32
